- Tested on: Escherichia coli ATCC 25922
- conditions used: ATCC 25922
Where a SMILES comes first, the peptide text is derived from it. [ ]: non-standard residue; d: D form. The star is where a group is joined. OBn = c1ccc(CO*)cc1
endpoint name: MBC E. coli (µg/mL)
// units = µg/mL; emit number, no label

Report value: MBC E. coli, system: Escherichia coli ATCC 25922, compound: N=C(N)NCCC[C@@H](NC(=O)[C@H](N)Cc1c[nH]c2ccccc12)C(=O)N[C@H](Cc1c[nH]c2ccccc12)C(=O)OCc1ccccc1 [wrw OBz] (H-[dW]-[dR]-[dW]-OBn)
200

Specify the recorded MBC E. coli for N=C(N)NCCC[C@H](NC(=O)[C@H](N)Cc1c[nH]c2ccccc12)C(=O)N[C@@H](Cc1c[nH]c2ccccc12)C(=O)OCc1ccccc1 [wRW OBz] (H-[dW]-Arg-Trp-OBn) , system: Escherichia coli ATCC 25922.
100

----------
- Test system: Escherichia coli ATCC 25922
- conditions used: ATCC 25922
Where a SMILES comes first, the peptide text is derived from it. [ ]: non-standard residue; d: D form. The star is where a group is joined. Bip = N[C@@H](Cc1ccc(-c2ccccc2)cc1)C(=O)O; Cha = N[C@@H](CC1CCCCC1)C(=O)O; OBn = c1ccc(CO*)cc1
Form field: MIC E. coli (one value per entry).
A number alone suffices; assume µg/mL.

compound	recorded value
N=C(N)NCCC[C@H](NC(=O)[C@@H](N)Cc1ccc(-c2ccccc2)cc1)C(=O)OCc1ccccc1 [BipR-OBzl] (H-[Bip]-Arg-OBn; N-terminus assumed)	150.0

We next turn to a different compound, shown below.
Item N=C(N)NCCC[C@H](NC(=O)[C@@H](N)CC1CCCCC1)C(=O)OCc1ccccc1 [ChxAR-OBzl] (H-[Cha]-Arg-OBn; N-terminus assumed) : provide MIC E. coli
300.0

----------
Form field: MIC E. coli (one value per entry).
- Tested on: Escherichia coli ATCC 25922
- conditions used: ATCC 25922
Where a SMILES comes first, the peptide text is derived from it. [ ]: non-standard residue; d: D form. The star is where a group is joined. Bip = N[C@@H](Cc1ccc(-c2ccccc2)cc1)C(=O)O; OBn = c1ccc(CO*)cc1

compound	MIC E. coli
N=C(N)NCCC[C@@H](N)C(=O)N[C@@H](Cc1c[nH]c2ccccc12)C(=O)OCc1ccccc1 [rW-Obzl] (H-[dR]-Trp-OBn; N-terminus assumed)	>300 µg/mL

Find the measured MIC E. coli of C[C@H](NC(=O)[C@H](C)NC(=O)[C@H](Cc1ccc(-c2ccccc2)cc1)NC(=O)[C@@H](N)Cc1ccc(-c2ccccc2)cc1)C(=O)N[C@@H](CCCNC(=N)N)C(=O)N[C@@H](CCCNC(=N)N)C(N)=O [BBAARR-NH2] (H-[Bip][Bip]AARR-NH2; N-terminus assumed) and report it.
>150 µg/mL

Determine from records and report MIC E. coli for COC(=O)[C@H](Cc1c[nH]c2ccccc12)NC(=O)[C@@H](N)CCCNC(=N)N [RW-OMe] (H-Arg-Trp-OMe; N-terminus assumed)
>300.0 µg/mL

For the compound C[C@H](NC(=O)[C@H](C)NC(=O)[C@H](CCCNC(=N)N)NC(=O)[C@H](CCCNC(=N)N)NC(=O)[C@H](Cc1ccc(-c2ccccc2)cc1)NC(=O)[C@@H](N)Cc1ccc(-c2ccccc2)cc1)C(N)=O [BBRRAA-NH2] (H-[Bip][Bip]RRAA-NH2; N-terminus assumed) , give its measured MIC E. coli value.
75 µg/mL

Name the recorded MIC E. coli of the item N=C(N)NCCC[C@H](N)C(=O)N[C@@H](Cc1c[nH]c2ccccc12)C(=O)OCc1ccccc1 [RW OBz] (H-Arg-Trp-OBn) in your answer.
>200 (>200) μg/ml

----------
// MIC P. aerug. lookup, one value per entry
- System: P. aeruginosa
Where a SMILES comes first, the peptide text is derived from it. [ ]: non-standard residue; d: D form. The star is where a group is joined. Bip = N[C@@H](Cc1ccc(-c2ccccc2)cc1)C(=O)O; Cha = N[C@@H](CC1CCCCC1)C(=O)O; OBn = c1ccc(CO*)cc1

Sample records with MIC P. aerug.:
compound	MIC P. aerug.
N=C(N)NCCC[C@H](NC(=O)[C@@H](N)Cc1ccccc1)C(=O)OCc1ccccc1 [FR-Obzl] (H-Phe-Arg-OBn; N-terminus assumed)	>300.0 mg/L
N=C(N)NCCC[C@H](NC(=O)[C@@H](N)CC1CCCCC1)C(=O)OCc1ccccc1 [ChxAR-OBzl] (H-[Cha]-Arg-OBn; N-terminus assumed)	>300.0 mg/L

Now look at this entry.
Report measured MIC P. aerug.; entry is COC(=O)[C@H](CCCNC(=N)N)NC(=O)[C@@H](N)Cc1ccc(-c2ccccc2)cc1 [BipR-OMe] (H-[Bip]-Arg-OMe; N-terminus assumed)
>300.0 mg/L

----------
Below, each entry is listed alongside its reported MIC E. coli.
- Tested on: Escherichia coli ATCC 25922
- conditions used: Table 8, first column
Where no end group is shown, it is not given here.
Respond numerically; units are µg/mL and should not be typed.

Consider the reported MIC E. coli for these substances:
substance	MIC E. coli, µg/mL
WRAAWR-NH2 Pmc+: hexapeptide amide having the Pmc group (also: Pmc group, position not given here)	50
WWAARR-NH2 Pmc+: hexapeptide amide having the Pmc group (also: Pmc group, position not given here)	50
AAWWRR-NH2 Pmc+: hexapeptide amide having the Pmc group (also: Pmc group, position not given here)	20
RRAAWW-NH2 Pmc+: hexapeptide amide having the Pmc group; label printed twice, second probably RRAAWB (also: Pmc group, position not given here)	20

Consider the additional substance presented here.
Quote Escherichia coli ATCC 25922 MIC E. coli for entry AWRWRA-NH2 Pmc+: hexapeptide amide having the Pmc group (also: Pmc group, position not given here) .
20

----------
Recorded MIC E. coli values for a group of compounds are listed next.
- Tested on: Escherichia coli ATCC 25922
- conditions used: ATCC 25922
Where a SMILES comes first, the peptide text is derived from it. [ ]: non-standard residue; d: D form. The star is where a group is joined. Phe(4-tBu) = CC(C)(C)c1ccc(C[C@H](N)C(=O)O)cc1; Bip = N[C@@H](Cc1ccc(-c2ccccc2)cc1)C(=O)O; 2Nal = N[C@@H](Cc1ccc2ccccc2c1)C(=O)O; OBn = c1ccc(CO*)cc1
Please state the figure in µg/mL; there is no need to write the unit.

Worked examples follow.
compound	MIC E. coli (µg/mL)
COC(=O)[C@H](CCCNC(=N)N)NC(=O)[C@H](Cc1c(C(C)(C)C)[nH]c2c(C(C)(C)C)cc(C(C)(C)C)cc12)NC(=O)[C@@H](N)CCCNC(=N)N [RTbtR OMe, H-Arg-Tbt-Arg-OMe]	25
N=C(N)NCCC[C@H](NC(=O)[C@H](Cc1ccc(O)cc1)NC(=O)[C@H](CCCNC(=N)N)NC(=O)[C@H](Cc1ccc2ccccc2c1)NC(=O)[C@@H](N)CCCNC(=N)N)C(=O)N[C@@H](Cc1ccc2ccccc2c1)C(N)=O [Arg-(2-Nal)-Arg-Tyr-Arg-(2-Nal)NH2] (H-R[2Nal]RYR[2Nal]-NH2; N-terminus assumed)	10

Look up and report measured MIC E. coli for this entry: C[C@H](N)C(=O)N[C@@H](C)C(=O)N[C@@H](Cc1c[nH]c2ccccc12)C(=O)N[C@@H](Cc1ccc(-c2ccccc2)cc1)C(=O)N[C@@H](CCCNC(=N)N)C(=O)N[C@@H](CCCNC(=N)N)C(N)=O [AAWBRR-NH2] (H-AAW[Bip]RR-NH2; N-terminus assumed)
150

Quote MIC E. coli reported for N=C(N)NCCC[C@H](NC(=O)[C@H](Cc1c[nH]c2ccccc12)NC(=O)[C@H](CCCNC(=N)N)NC(=O)[C@H](Cc1c[nH]c2ccccc12)NC(=O)[C@H](CCCNC(=N)N)NC(=O)[C@@H](N)Cc1c[nH]c2ccccc12)C(N)=O [WRWRWR] (H-WRWRWR-NH2) please.
7.5

Please give measured MIC E. coli of the following entry: N=C(N)NCCC[C@H](NC(=O)[C@H](Cc1c[nH]c2ccccc12)NC(=O)[C@@H](N)CCCNC(=N)N)C(=O)N[C@@H](Cc1c[nH]c2ccccc12)C(=O)OCc1ccccc1 [RWRW-OBzl] (H-RWRW-OBn)
100

Provide one value: measured MIC E. coli of N=C(N)NCCC[C@H](NC(=O)[C@H](CCCNC(=N)N)NC(=O)[C@H](Cc1c[nH]c2ccccc12)NC(=O)[C@H](Cc1c[nH]c2ccccc12)NC(=O)[C@H](Cc1c[nH]c2ccccc12)NC(=O)[C@@H](N)CCCNC(=N)N)C(N)=O [RWWWRR] (H-RWWWRR-NH2)
10

Report measured MIC E. coli; entry is CC(C)(C)c1ccc(C[C@H](N)C(=O)N[C@@H](CCCNC(=N)N)C(=O)OCc2ccccc2)cc1 [tBuFR-OBzl] (H-[Phe(4-tBu)]-Arg-OBn; N-terminus assumed)
200.0

Quickly give me recorded MIC E. coli for N=C(N)NCCC[C@H](NC(=O)[C@H](CCCNC(=N)N)NC(=O)[C@H](Cc1ccc(-c2ccccc2)cc1)NC(=O)[C@@H](N)Cc1ccc(-c2ccccc2)cc1)C(N)=O [BBRR-NH2] (H-[Bip][Bip]RR-NH2; N-terminus assumed)
50
